experiment: in vitro; conditions: Sprague-Dawley, rat, plasma
READOUT: AUC(0-t) at 22 h (µg·h/mL)

SMILES	NUMERIC VALUE
Cc1cnc(Nc2ccc(OCCCCCCC(=O)NO)cc2)nc1Nc1cccc(S(=O)(=O)NC(C)(C)C)c1	217
Cc1cnc(Nc2ccc(OCCCCCCC(=O)NO)c(F)c2)nc1Nc1cccc(S(=O)(=O)NC(C)(C)C)c1	169

----------
List of IC50 tested on Histone deacetylase 3 (Homo sapiens, UniProt O15379).
Sequence (O15379 whole entry): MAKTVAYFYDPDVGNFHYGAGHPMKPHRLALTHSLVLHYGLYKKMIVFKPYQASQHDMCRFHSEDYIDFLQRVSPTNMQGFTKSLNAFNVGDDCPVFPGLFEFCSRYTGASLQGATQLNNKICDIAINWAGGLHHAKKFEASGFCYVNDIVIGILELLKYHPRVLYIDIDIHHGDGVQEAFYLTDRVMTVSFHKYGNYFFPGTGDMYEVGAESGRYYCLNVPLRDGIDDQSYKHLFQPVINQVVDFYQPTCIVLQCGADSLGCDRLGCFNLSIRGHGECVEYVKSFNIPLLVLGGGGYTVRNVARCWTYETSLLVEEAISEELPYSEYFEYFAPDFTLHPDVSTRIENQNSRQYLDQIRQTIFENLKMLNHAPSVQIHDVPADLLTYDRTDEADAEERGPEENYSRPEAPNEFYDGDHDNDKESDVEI
READOUT: IC50 (nM)

SMILES	NUMERIC VALUE
Cc1cnc(Nc2ccc(OCCCCCCC(=O)NO)cc2)nc1Nc1cccc(S(=O)(=O)NC(C)(C)C)c1	58.7
Cc1cnc(Nc2ccc(OCCCCCCC(=O)NO)c(F)c2)nc1Nc1cccc(S(=O)(=O)NC(C)(C)C)c1	73.9

----------
molecular target: Non-receptor tyrosine-protein kinase TYK2 (Homo sapiens, UniProt P29597)
Sequence (P29597 whole entry): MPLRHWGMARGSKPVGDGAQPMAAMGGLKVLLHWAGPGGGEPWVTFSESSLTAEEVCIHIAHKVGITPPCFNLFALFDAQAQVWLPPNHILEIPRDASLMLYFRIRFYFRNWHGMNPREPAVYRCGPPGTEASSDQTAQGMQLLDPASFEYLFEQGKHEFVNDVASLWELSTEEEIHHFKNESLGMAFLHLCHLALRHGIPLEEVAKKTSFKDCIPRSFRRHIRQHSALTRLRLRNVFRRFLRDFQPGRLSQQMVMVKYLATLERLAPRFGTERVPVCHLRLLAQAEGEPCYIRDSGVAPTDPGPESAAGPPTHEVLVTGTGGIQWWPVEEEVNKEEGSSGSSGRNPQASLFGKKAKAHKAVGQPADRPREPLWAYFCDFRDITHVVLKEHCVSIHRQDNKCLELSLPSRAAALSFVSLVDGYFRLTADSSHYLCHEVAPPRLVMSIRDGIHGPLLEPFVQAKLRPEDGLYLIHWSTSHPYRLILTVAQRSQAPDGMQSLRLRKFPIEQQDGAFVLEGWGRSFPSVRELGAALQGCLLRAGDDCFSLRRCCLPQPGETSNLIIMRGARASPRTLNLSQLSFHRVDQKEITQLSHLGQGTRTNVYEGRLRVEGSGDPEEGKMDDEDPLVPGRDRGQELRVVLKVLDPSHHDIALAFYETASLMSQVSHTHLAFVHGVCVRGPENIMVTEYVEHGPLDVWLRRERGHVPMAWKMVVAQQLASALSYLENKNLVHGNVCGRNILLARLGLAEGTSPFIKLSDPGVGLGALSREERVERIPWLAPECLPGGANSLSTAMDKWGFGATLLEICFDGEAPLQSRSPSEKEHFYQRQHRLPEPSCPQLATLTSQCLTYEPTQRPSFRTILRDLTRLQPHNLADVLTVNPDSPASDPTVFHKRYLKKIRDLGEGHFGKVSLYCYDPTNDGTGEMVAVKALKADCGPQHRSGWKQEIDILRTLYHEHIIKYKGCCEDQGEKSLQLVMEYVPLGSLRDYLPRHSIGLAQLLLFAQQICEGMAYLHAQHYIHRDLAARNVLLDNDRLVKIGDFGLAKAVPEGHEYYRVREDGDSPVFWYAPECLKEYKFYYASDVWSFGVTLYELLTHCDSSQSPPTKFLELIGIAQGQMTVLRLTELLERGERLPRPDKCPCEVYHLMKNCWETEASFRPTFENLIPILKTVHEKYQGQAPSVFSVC
READOUT: pIC50
Scale explanation: pIC50 corresponds to minus log10 of a concentration expressed in moles per litre.

For the record Cc1cnc(Nc2ccc(OCCCCCCC(=O)NO)c(F)c2)nc1Nc1cccc(S(=O)(=O)NC(C)(C)C)c1 , what value of pIC50 is listed for Non-receptor tyrosine-protein kinase TYK2 (Homo sapiens, UniProt P29597)? 6.11

----------
assay: in vivo; conditions: Sprague-Dawley, rat, po, 15 mg/kg
READOUT: CL/F at 24 h (mL/min/kg)

SMILES	UNITS OF MEASURE	CL/F at 24 h
Cc1cnc(Nc2ccc(OCCCCCCC(=O)NO)cc2)nc1Nc1cccc(S(=O)(=O)NC(C)(C)C)c1	mL/min/kg	76
Cc1cnc(Nc2ccc(OCCCCCCC(=O)NO)c(F)c2)nc1Nc1cccc(S(=O)(=O)NC(C)(C)C)c1	mL/min/kg	98.3

----------
test system: HL-60; assay: cells; type: functional, cell-based; conditions: Homo sapiens, HL-60, 72 h
READOUT: IC50 (µM)

P = Cc1cnc(Nc2ccc(OCCCCCCC(=O)NO)c(Br)c2)nc1Nc1cccc(S(=O)(=O)NC(C)(C)C)c1
Q = Cc1cnc(Nc2ccc(OCCCCCCC(=O)NO)cc2)nc1Nc1cccc(S(=O)(=O)NC(C)(C)C)c1
Thinking about recorded IC50 values, which is higher, P or Q ? Mark your answer with the label of the selected entry. P

----------
assay: in vivo; details: Sprague-Dawley, rat, po, 15 mg/kg
READOUT: half-life at 24 h (h)

SMILES	UNITS OF MEASURE	NUMERIC VALUE
Cc1cnc(Nc2ccc(OCCCCCCC(=O)NO)c(F)c2)nc1Nc1cccc(S(=O)(=O)NC(C)(C)C)c1	h	1.81
Cc1cnc(Nc2ccc(OCCCCCCC(=O)NO)cc2)nc1Nc1cccc(S(=O)(=O)NC(C)(C)C)c1	h	2.08

----------
tested on: K562; assay: cells; format: functional, cell-based; details: Homo sapiens, K562, 72 h
READOUT: IC50 (µM)

Solved entries (count: 2):
SMILES	UNITS OF MEASURE	IC50
Cc1cnc(Nc2ccc(OCCCCCC(=O)NO)c(Cl)c2)nc1Nc1cccc(S(=O)(=O)NC(C)(C)C)c1	µM	4.37
Cc1cnc(Nc2ccc(OCCCCCCCC(=O)NO)cc2)nc1Nc1cccc(S(=O)(=O)NC(C)(C)C)c1	µM	7.16

I = Cc1cc(Nc2ncc(C)c(Nc3cccc(S(=O)(=O)NC(C)(C)C)c3)n2)ccc1OCCCCCCC(=O)NO
II = Cc1cnc(Nc2ccc(OCCCCCC(=O)NO)cc2)nc1Nc1cccc(S(=O)(=O)NC(C)(C)C)c1
III = Cc1cnc(Nc2ccc(OCCCCCCC(=O)NO)cc2)nc1Nc1cccc(S(=O)(=O)NC(C)(C)C)c1
Ranking field: IC50; order: falling. Output spec: labels arranged per the requested ranking. I, II, III

----------
system: HL-60; experiment: cells; type: functional, cell-based; conditions: Homo sapiens, HL-60, 72 h
pIC50: −log10 of the molar value.
READOUT: pIC50

Solved entries (count: 6):
SMILES	NUMERIC VALUE
Cc1cnc(Nc2ccc(OCCCCCC(=O)NO)c(C(F)(F)F)c2)nc1Nc1cccc(S(=O)(=O)NC(C)(C)C)c1	5.16
COc1cc(Nc2ncc(C)c(Nc3cccc(S(=O)(=O)NC(C)(C)C)c3)n2)ccc1OCCCCCCC(=O)NO	5.36
Cc1cnc(Nc2ccc(OCCCCCC(=O)NO)cc2)nc1Nc1cccc(S(=O)(=O)NC(C)(C)C)c1	5.59
Cc1cc(Nc2ncc(C)c(Nc3cccc(S(=O)(=O)NC(C)(C)C)c3)n2)ccc1OCCCCCCC(=O)NO	5.31
Cc1cnc(Nc2ccc(OCCCCCC(=O)NO)c(Cl)c2)nc1Nc1cccc(S(=O)(=O)NC(C)(C)C)c1	5.17
Cc1cnc(Nc2ccc(OCCCCCCCC(=O)NO)cc2)nc1Nc1cccc(S(=O)(=O)NC(C)(C)C)c1	5.19

1 = Cc1cnc(Nc2ccc(OCCCCCCC(=O)NO)c(Cl)c2)nc1Nc1cccc(S(=O)(=O)NC(C)(C)C)c1
2 = Cc1cnc(Nc2ccc(OCCCCCCC(=O)NO)c(F)c2)nc1Nc1cccc(S(=O)(=O)NC(C)(C)C)c1
I'm curious whether 1 or 2 has the smaller pIC50 number. Which is it? Mark your answer with the label of the selected entry. 1
